All figures here come from patent US20240400690A1.

Target: T1, B7-H3 on tumour cells (MDA-MB-468 cells, N87 cells) (UniProt Q5ZPR3 29-534, limits assumed)
T1 construct: whole, on cells
T1 sequence (looked up): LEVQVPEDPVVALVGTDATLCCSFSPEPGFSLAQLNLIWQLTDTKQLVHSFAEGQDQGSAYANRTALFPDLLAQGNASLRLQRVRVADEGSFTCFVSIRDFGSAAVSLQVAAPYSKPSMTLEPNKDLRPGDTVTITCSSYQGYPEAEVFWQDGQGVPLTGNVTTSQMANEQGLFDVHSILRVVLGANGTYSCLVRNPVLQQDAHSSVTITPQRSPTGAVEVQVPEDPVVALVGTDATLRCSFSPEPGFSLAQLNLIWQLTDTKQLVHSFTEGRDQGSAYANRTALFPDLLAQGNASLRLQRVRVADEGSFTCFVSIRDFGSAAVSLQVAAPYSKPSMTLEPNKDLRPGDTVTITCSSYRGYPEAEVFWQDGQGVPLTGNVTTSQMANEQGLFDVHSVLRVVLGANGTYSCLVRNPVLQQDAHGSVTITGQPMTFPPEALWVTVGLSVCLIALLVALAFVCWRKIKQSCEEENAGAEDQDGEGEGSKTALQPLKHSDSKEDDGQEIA
Assay: flow cytometry on MDA-MB-468 cells, PE goat anti-human IgG Fc secondary; blank 0.9% in the positive gate
METRIC: % of cells in positive gate V1-R at 11.11 nM (%)
Note: unit % is implicit; provide only the numeric part.

Examples from the recorded data:
antibody V3 (antibody, human IgG1, kappa, V domains shown, Humanized from chimeric antibody M1; expressed in HEK293F cells; also called humanized antibody V3) VH: EVQLVQSGAEVKKSGESLKISCKASGYTFTDYDINWVRQMPGKGLEWIGWIFPGDDTTKYNEKFKGQVTLSADKSTNTAYMQWSSLKASDTAMYYCARSPSFDYWGQGTLVTVSS VL: QIVLTQSPGTLSLSPGERATLSCSASSTIGFMYWYQQKPGQAPRRWIYDTSKLASGVPDRFSGSGSGTDYTLTISRLEPEDFAVYYCHQRSSYPTFGQGTKVEIKR    97.2
antibody V2 (antibody, human IgG1, kappa, V domains shown, Humanized from chimeric antibody M1; expressed in HEK293F cells; also called humanized antibody V2) VH: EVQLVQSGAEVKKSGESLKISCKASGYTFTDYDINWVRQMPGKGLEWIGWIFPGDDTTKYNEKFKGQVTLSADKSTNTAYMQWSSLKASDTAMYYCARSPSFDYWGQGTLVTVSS VL: QIVLTQSPGTLSLSPGERATLSCSASSTIGFMYWYQQKPGQAPRRWIYDTSKLASGVPDRFSVSGSGTDYTLTISRLEPEDFAVYYCHQRSSYPTFGQGTKVEIKR    97.8

Query antibody V5 (antibody, human IgG1, kappa, V domains shown, Humanized from chimeric antibody M1; expressed in HEK293F cells; also called humanized antibody V5) VH: QVQLVQSGAEVKKPGASVKVSCKASGYTFTDYDINWVRQAPGQRLEWIGWIFPGDDTTKYNEKFKGRATLTADKSASTAYMELSSLRSEDTAVYYCARSPSFDYWGQGTLVTVSS VL: QIVLTQSPSSLSASVGDRVTITCSASSTIGFMYWYQQKPGKAPKRWIYDTSKLASGVPSRFSVSGSGTDYTLTISSLQPEDFATYYCHQRSSYPTFGQGTKVEIKR yields % of cells in positive gate V1-R at 11.11 nM of 99.3
